# Assayed system: T1, Recombinant human sgM-CSF (human, UniProt P09603 33-255)
# T1 sequence: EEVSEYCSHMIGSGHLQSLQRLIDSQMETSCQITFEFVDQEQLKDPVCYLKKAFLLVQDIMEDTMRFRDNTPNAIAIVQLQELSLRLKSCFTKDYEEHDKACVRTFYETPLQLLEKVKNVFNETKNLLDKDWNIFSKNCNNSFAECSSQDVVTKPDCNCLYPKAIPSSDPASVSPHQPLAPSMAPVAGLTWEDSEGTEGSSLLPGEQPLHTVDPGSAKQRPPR
# Experimental protocol: cell-based or functional assay
Let's look at some binders and their measured IC50, inhibition of M-NFS-60 proliferation induced by recombinant human M-CSF (9.5 pM).
Report the figure in pM without appending any unit label.

Answered examples (2):
{"Binder": "Laurine, IgG1_D265A (antibody, V domains shown, tested as IgG1 with D265A in the Fc (EU index); Parental antibody of Madeleine, Maelle, Meriem) VH: QVQLQQSGPGLVKPSQTLSLTCAISGDSVSSNSAAWNWIRQSPSRGLEWLGRTYYRSKWKKEYAQSVKSRITINPDTSKNQFSLQLNSVTPEDTAVYYCARDRYYYSAFDYWGQGTLVTVSS VL: DIALTQPASVSGSPGQSITISCTGTSSDVGGYNSVSWYQQHPGKAPKLMIYAVSNRPSGVSNRFSGSKSGNTASLTISGLQAEDEADYYCASYDERFTRVFGGGTKLTVLG", "Readout units": "pM", "Reading": 2.6}
{"Binder": "Madeleine, IgG1_D265A (antibody, V domains shown, tested as IgG1 with D265A in the Fc (EU index)) VH: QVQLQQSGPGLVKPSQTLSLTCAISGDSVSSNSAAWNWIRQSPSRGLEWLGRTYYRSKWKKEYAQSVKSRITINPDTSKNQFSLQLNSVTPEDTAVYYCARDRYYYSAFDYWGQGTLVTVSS VL: QSALTQPASVSGSPGQSITISCTGTSSDVGGYNSVSWYQQHPGKAPKLMIYAVSNRPSGVSNRFSGSKSGNTASLTISGLQAEDEADYYCASYDERFTRVFGGGTKLTVLG", "Readout units": "pM", "Reading": 3}

Noted for Romaine, IgG1_D265A (antibody, V domains shown, tested as IgG1 with D265A in the Fc (EU index); Parental antibody of Satine, Servane) VH: EVQLVESGGGLVKPGGSLRLSCAASGFTFSIYAMSWVRQAPGKGLEWVGRIKSNADGGTTEYAAPVKGRFTISRDDSKNTLYLQMNSLKTEDTAVYYCARMRYYSDLYFDPWGQGTLVTVSS VL: DIELTQPPSVSVSPGQTASITCSGDAIGSKYVHWYQQKPGQAPVLVISKDNKRPSGIPERFSGSNSGNTATLTISGTQAEDEADYYCQTATVSSYWWVFGGGTKLTVLG : its IC50, inhibition of M-NFS-60 proliferation induced by recombinant human M-CSF (9.5 pM) reads 8.4
